- measurementProtocol: Components of the Cytosolic LPS Sensing Pathway: Gene Identification via Genome-wide siRNA Screen;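 further: robust z of the log signal after scaling to non-targeting control siRNA wells of the plate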
- conditionParameters: RAW264.7 macrophages, IL-1a HTRF, actives lie on both sides, screened at 100 nM (by protocol), cells primed 5 h with Pam3CSK4 first
The whole screen tested about 53,000 sequences, of which about 3,700 (7%) were called active. The entries come from a sample that favours actives as a whole.
Categories are assigned from the measured z-score using these intervals: low value: < -0.5; medium value: ≥ -0.5 and < 1; high value: ≥ 1

Look over these answered cases.
>>> label("CCUGCUCUUCGUUAUCUUGTT against Olfr552")
"high value"
>>> label("GGAGCUAAGGGAACAAUUATT against Psmc6")
"low value"
>>> label("GCUGAUCCUCUCCCUUCAUTT against Tas2r131")
"medium value"
>>> label("GCCCUUGAAGAUUUGAGGUTT against Cops8")
"medium value"

*Q* Would you mind sorting GAAAUUAGAACAACUUUGGTT against 3830403N18Rik into the appropriate category?
*A* medium value

*Q* Would you mind sorting GCAGCUUAGUGAUUUGAAATT against Tex21 into the appropriate category?
*A* low value

*Q* Would you mind sorting GCUGGAUAGCUAAAAUGAUTT against Gimap5 into the appropriate category?
*A* medium value

*Q* Would you mind sorting GGAGCAUUUUCCAGUUGAGTT against Mrps35 into the appropriate category?
*A* high value

*Q* Would you mind sorting CCAAGUCUACCUCUAUUUUTT against Pbsn into the appropriate category?
*A* high value

*Q* Would you mind sorting GGAUUACACACCUACGAUCTT against Taf10 into the appropriate category?
*A* low value

*Q* Would you mind sorting GGUGCCUUCUGUAAACGAGTT against Foxc2 into the appropriate category?
*A* high value

*Q* Would you mind sorting GCAAAUUCCAGUGAAAGCCTT against Papola into the appropriate category?
*A* high value

---

- measurementProtocol: Components of the Cytosolic LPS Sensing Pathway: Gene Identification via Genome-wide siRNA Screen;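 further: robust z of the log signal after scaling to non-targeting control siRNA wells of the plate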
- conditionParameters: RAW264.7 macrophages, IL-1a HTRF, actives lie on both sides, screened at 100 nM (by protocol), cells primed 5 h with Pam3CSK4 first
The campaign covered roughly 53,000 sequences. About 3,700 (7%) were called active.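 How the source made its calls: active means gene knockdowns whose robust z-score for IL-1 alpha signal is at least 2 or at most -2, so actives lie on both sides; inactive means the rest.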 Only a selection was taken, and actives are over-represented in it overall.
Outcome (select one): label 1 (active), label 0 (inactive)

*Q* What classification did GCUUCGUGGCUUUUUAUGATT against Dlgap3 end up with in this test?
*A* label 0

---

- measurementProtocol: Components of the Cytosolic LPS Sensing Pathway: Gene Identification via Genome-wide siRNA Screen;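 further: robust z of the log signal after scaling to non-targeting control siRNA wells of the plate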
- conditionParameters: RAW264.7 macrophages, IL-1a HTRF, actives lie on both sides, screened at 100 nM (by protocol), cells primed 5 h with Pam3CSK4 first
In all, about 53,000 sequences went through this assay and about 3,700 (7%) were called active. The entries come from a sample that favours actives as a whole.
Categories are assigned from the measured z-score using these intervals: bottom bin: < -0.7; middle bin: ≥ -0.7 and < 0.5; top bin: ≥ 0.5

>>> label("CGCAAGUAUUUCCACCAUATT against Clk4")
"middle bin"
>>> label("GGAAUCAAAGAUGGAGAGGTT against Galnt3")
"middle bin"
>>> label("CCACUACAACAACACUUAUTT against Keg1")
"top bin"
>>> label("GGAUCUGAAGCUGAUUACATT against Clca2")
"top bin"
>>> label("GCUCUGAAAUGUCUCUCCATT against H2-D1")
"middle bin"

*Q* Would you mind sorting GAGUCUUACAUCAAGAAGATT against 9230106D20Rik into the appropriate category?
*A* top bin

*Q* Would you mind sorting CCUAAUUGUAGUAGUACUATT against Olfr117 into the appropriate category?
*A* bottom bin
